Each recorded value in this set is attributed to ChEMBL document CHEMBL3751808.

- Tested on: T98G
- Protocol description: Antiproliferative activity against human T98G cells assessed as cell viability after 72 hrs by MTT assay
- Assay type: functional, cell-based
Readout type: pIC50
The meaning of pIC50 here: minus log10 of the concentration in molar units.

Input: Find the recorded pIC50 belonging to COc1cc(/C=C/C(=O)CC(=O)/C=C/c2ccc(O)c(OC)c2)ccc1O and report it.
Output: 4.60

* * *

- Tested on: T98G
- Protocol description: Antiproliferative activity against human T98G cells after 24 hrs by EZ-Tox assay
- Assay type: functional, cell-based
Readout type: pIC50
pIC50 here: minus log base 10 of the concentration, concentration in moles per litre.

Known pIC50 results, listed for orientation:
COc1cc(/C=C/C(=O)CC(=O)/C=C/c2ccc(O)c(OC)c2)ccc1O [CURCUMIN]: 5.00
COc1cccc2c1C(=O)c1c(O)c3c(c(O)c1C2=O)C[C@@](O)(C(=O)CO)C[C@@H]3O[C@H]1C[C@H](N)[C@H](O)[C@H](C)O1 [DOXORUBICIN]: 6.30

Here's the next entry for you.
Input: Record request: pIC50 value, item O=C(O[C@@H]1Cc2c(O)cc(O)cc2O[C@@H]1c1cc(O)c(O)c(O)c1)c1cc(O)c(O)c(O)c1 [EPIGALOCATECHIN GALLATE]
Output: 3.78
